biological target: panel of 255 wild-type kinases (Homo sapiens, UniProt Q16288); test: Kinase panel profiling at 1 µmol/L (MSA or IMAP), percentage inhibition; format: biochemical; conditions: kinase TRKC; 1 µmol/L single concentration; read-out: %-inhibition at 1 µmol/L, TRKC
Sequence (Q16288 32-839): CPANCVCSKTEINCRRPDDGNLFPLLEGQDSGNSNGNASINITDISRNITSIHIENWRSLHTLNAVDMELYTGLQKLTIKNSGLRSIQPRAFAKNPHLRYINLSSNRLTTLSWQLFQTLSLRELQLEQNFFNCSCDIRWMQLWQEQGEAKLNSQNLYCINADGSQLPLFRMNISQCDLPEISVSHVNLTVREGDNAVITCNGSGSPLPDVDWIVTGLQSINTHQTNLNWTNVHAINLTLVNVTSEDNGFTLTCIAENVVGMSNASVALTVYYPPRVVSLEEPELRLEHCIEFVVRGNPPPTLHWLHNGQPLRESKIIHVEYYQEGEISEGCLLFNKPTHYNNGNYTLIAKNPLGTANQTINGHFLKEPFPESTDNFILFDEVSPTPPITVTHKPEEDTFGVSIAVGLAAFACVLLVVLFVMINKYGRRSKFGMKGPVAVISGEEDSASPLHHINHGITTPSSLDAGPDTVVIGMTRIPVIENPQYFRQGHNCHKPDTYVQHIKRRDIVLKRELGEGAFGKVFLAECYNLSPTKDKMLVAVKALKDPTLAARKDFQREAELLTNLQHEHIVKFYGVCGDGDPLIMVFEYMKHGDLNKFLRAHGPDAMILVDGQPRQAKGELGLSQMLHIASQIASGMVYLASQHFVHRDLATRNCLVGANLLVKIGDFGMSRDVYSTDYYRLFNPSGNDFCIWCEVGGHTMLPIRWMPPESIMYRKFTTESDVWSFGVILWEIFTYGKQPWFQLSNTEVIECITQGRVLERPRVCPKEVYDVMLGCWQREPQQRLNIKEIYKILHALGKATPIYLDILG
VALUE TYPE: inhibition at 1 µM (%)

SMILES INPUT: CCN1C(=O)N(c2c(F)c(OC)cc(OC)c2F)Cc2cnc3[nH]c(CN4CCOCC4)cc3c21
TARGET UNDER TEST: panel of 255 wild-type kinases (Homo sapiens, UniProt Q16288)
READOUT UNITS: %
inhibition at 1 µM: -0.168

I = Cn1cnc2c(F)c(Nc3ccc(Br)cc3F)c(C(=O)NOCCO)cc21
II = COc1ccc(CN2C3CC2CN(c2ccc(-c4cc(OCC(C)(C)O)cn5ncc(C#N)c45)cn2)C3)cn1
III = CO[C@]1(C(=O)N[C@@H](C)c2ccc(-n3cc(F)cn3)nc2)CC[C@H](c2nc(C)cc(Nc3cc(C)[nH]n3)n2)CC1
# input Reorder the items by inhibition at 1 µM, least to greatest. Please list the labels according to the requested order.
# output I, II, III
(I: -0.843%, II: 10%, III: 98%)

Source: paper PMC9516332
